- Test system: IGROV1 ovarian
- procedure.summary: NCI tumour cell line growth inhibition, 48 h
Recorded TGI for the following compounds

# smiles.structure, measurement.label, reported
rows = [
    ("C=C1c2nc3ccccc3n2C=C(c2ccc(Cl)cc2)N1c1ccc(OCCN2CCOCC2)cc1", "TGI", "> 100 µM"),
    ("CN(c1c(Cl)cccc1Cl)S(=O)(=O)c1ccccc1[N+](=O)[O-]", "TGI", "> 100 µM"),
    ("COCCc1c(C)c(C#N)c2n(C)c3ccccc3n2c1=O", "TGI", "> 10 µM"),
]

Next compound, TGI to be filled in.
Q: Form field: reported TGI of `CCSC1(SCC)CCN(C=NC(C)(C)C)C1`
A: > 100 µM

meta.source: PubChem BioAssay (NCI)
